The reported numbers originate from patent US20170226120A1.

For each record, write down the corresponding IC50.
- assayedSystem: human HIF-PHD2 (Homo sapiens, UniProt Q9GZT9)
- Sequence (Q9GZT9 whole entry): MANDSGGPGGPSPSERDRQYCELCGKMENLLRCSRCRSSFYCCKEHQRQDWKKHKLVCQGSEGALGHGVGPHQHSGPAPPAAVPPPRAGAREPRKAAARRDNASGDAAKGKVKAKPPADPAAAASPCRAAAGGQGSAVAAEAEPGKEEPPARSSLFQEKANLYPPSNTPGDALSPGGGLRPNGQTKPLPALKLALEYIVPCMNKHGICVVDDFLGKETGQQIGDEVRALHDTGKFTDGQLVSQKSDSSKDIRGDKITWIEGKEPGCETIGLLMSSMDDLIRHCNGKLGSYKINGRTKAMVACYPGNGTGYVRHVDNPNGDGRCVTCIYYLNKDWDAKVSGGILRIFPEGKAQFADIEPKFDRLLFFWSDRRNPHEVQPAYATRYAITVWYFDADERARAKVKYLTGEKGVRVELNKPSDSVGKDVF
One number for each entry, in nM.

Give measured IC50 for every item shown.
1. NC(=O)c1ccc(Cn2c3c(c(O)c(C(=O)NCC(=O)O)c2=O)COC3)cc1
2. Cc1cc(Cn2c3c(c(O)c(C(=O)NCC(=O)O)c2=O)COC3)ccc1C#N
3. Cc1cc(Cl)ccc1Cn1c2c(c(O)c(C(=O)NCC(=O)O)c1=O)COC2
4. COC(=O)c1ccccc1Cn1c2c(c(O)c(C(=O)NCC(=O)O)c1=O)COC2

Key:
[4.3, 3.1, 4.1, 19.7]

----------
- assayMethodText: Tissue PK profile in rat (liver and plasma drug level)
- Assay type: in vivo
- assayContext: in vivo, po, 10 mg/kg, liver concentration
For each record, write down the corresponding concentration at 4 h.
Number first, unit second.

concentration at 4 h reported for this molecule O=C(O)CNC(=O)c1c(O)c2c(n(Cc3ncc(C(F)(F)F)cn3)c1=O)COC2 [Example 9] : 1.81 µM

concentration at 4 h reported for this molecule O=C(O)CNC(=O)c1c(O)c2c(n(Cc3nc4ccccc4o3)c1=O)COC2 [Example 46] : 2.07 µM

concentration at 4 h reported for this molecule O=C(O)CNC(=O)c1c(O)c2c(n(Cc3cnc(C(F)(F)F)s3)c1=O)COC2 [Example 18] : 11.8 µM

Give measured concentration at 4 h for every item shown.
1. O=C(O)CNC(=O)c1c(O)c2c(n(Cc3nc(C(F)(F)F)cs3)c1=O)COC2 [Example 21]
2. O=C(O)CNC(=O)c1c(O)c2c(n(Cc3cnc(C(F)(F)F)nc3)c1=O)COC2 [Example 12]
3. O=C(O)CNC(=O)c1c(O)c2c(n(Cc3cnc(C(F)(F)F)cn3)c1=O)COC2 [Example 11]
4. CC(C)(O)c1ccc(Cn2c3c(c(O)c(C(=O)NCC(=O)O)c2=O)COC3)cc1 [Example 5]

Key:
1. 4.77 µM
2. 0.775 µM
3. 7.9 µM
4. 5.59 µM

Give measured concentration at 4 h for every item shown.
1. O=C(O)CNC(=O)c1c(O)c2c(n(Cc3ccc(Cl)cc3)c1=O)COC2 [Example 27]
2. O=C(O)CNC(=O)c1c(O)c2c(n(Cc3cc(F)c(F)cc3F)c1=O)COC2 [Example 41]
3. O=C(O)CNC(=O)c1c(O)c2c(n(Cc3ccc(F)cc3F)c1=O)COC2 [Example 32]
4. O=C(O)CNC(=O)c1c(O)c2c(n(Cc3ccn(-c4ccccc4)n3)c1=O)COC2 [Example 22]

Key:
21.5 µM
41.4 µM
24.9 µM
0.816 µM

----------
- assayMethodText: Tissue PK profile in rat (liver and plasma drug level)
- Type: in vivo
- assayContext: liver, po, 10 mg/kg, 4 hours after PO dosing at 10 mpk, vehicle 0.5% MC, read-out: liver concentration
testReadout: concentration at 4 h (nM)
One number for each entry, in nM.

Recorded concentration at 4 h, per entry:
concentration at 4 h reported for this molecule "N#Cc1ccc(Cn2c3c(c(O)c(C(=O)NCC(=O)O)c2=O)COC3)cc1" : 1820

concentration at 4 h reported for this molecule "N#Cc1ccc(-c2ccc(Cn3c4c(c(O)c(C(=O)NCC(=O)O)c3=O)COC4)cc2)cc1" : 642

concentration at 4 h reported for this molecule "NC(=O)c1ccc(-c2ccc(Cn3c4c(c(O)c(C(=O)NCC(=O)O)c3=O)COC4)cc2)cc1" : 25.8

Others:
concentration at 4 h reported for this molecule "Cc1cc(Cl)ccc1Cn1c2c(c(O)c(C(=O)NCC(=O)O)c1=O)COC2" : 54200
